Please provide measured MIC for the entries that follow.
System: Mycobacterium tuberculosis
TEST_PROTOCOL: microbe, parasite or virus in culture

For the molecule CCc1ccc(NCCCOc2cc(C)nc3ccc(Cl)cc23)cc1 , what MIC is on record?
< 0.06 µM

Cc1cc(OCCCNc2ccc(Cl)cc2)c2cc(Br)ccc2n1 ?
< 0.05 µM

CCc1ccc(NCCCOc2cc(CC)nc3ccc(Br)cc23)cc1 ?
< 0.05 µM

CCc1ccc(NCCCOc2cc(C)nc3ccc(Br)cc23)cc1 ?
< 0.05 µM

COc1ccc2nc(C)cc(OCCCNc3ccc(I)cc3)c2c1 ?
< 0.05 µM

Cc1cc(OCCCNc2ccc(Br)cc2)c2cc(Cl)ccc2n1 ?
< 0.06 µM

COc1ccc2nc(C)cc(OCCCNc3ccc(Br)cc3)c2c1 ?
< 0.05 µM
